This listing pairs compounds with measured PPAR-γ % activation.
tested.target: PPAR-γ (Homo sapiens)
Construct: endogenous in cells; host or cells: CCD-112CoN normal colon cells or HeLa cells (ATCC), nuclear extract
Sequence (P37231 1-505): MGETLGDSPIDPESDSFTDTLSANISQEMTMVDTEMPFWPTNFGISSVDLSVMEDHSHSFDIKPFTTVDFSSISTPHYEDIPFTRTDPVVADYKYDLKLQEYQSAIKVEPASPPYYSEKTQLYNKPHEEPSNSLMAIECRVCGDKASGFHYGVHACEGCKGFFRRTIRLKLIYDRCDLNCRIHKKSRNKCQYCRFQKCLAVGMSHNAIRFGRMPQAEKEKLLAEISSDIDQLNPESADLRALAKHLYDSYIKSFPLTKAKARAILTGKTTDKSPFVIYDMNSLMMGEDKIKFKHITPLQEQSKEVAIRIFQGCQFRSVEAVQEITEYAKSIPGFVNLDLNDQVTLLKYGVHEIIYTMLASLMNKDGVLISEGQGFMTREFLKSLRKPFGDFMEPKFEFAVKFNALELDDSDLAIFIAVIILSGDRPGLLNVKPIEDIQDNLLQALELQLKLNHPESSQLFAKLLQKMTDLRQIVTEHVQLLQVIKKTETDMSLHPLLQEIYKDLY
experimental.details: PPAR-γ ELISA assay (PPAR-α,γ,δ Complete Transcription Factor Assay Kit; CCD-112CoN or Hela cells, nuclear extracts)
Assay type: cell-based
setup.conditions: Table 20 summary; 50 μg/mL
Express your answer in %, writing the number without its unit.

Some solved cases for reference:
>  <compound>
COc1cc([C@H]2Oc3c(OC)cc(C=O)cc3[C@@H]2C)ccc1OC(C)C

>  <units.symbol>
%

>  <observed.value>
29

$$$$
>  <compound>
C/C=C/c1cc(OC)c2c(c1)[C@H](C)[C@@H](c1ccc(O)c(OC)c1)O2

>  <units.symbol>
%

>  <observed.value>
81

$$$$
>  <compound>
CCOC(=O)Oc1ccc([C@H]2Oc3c(OC)cc(C=O)cc3[C@@H]2C)cc1OC [Compound 48, licarin A formyl ethyl carbonate]

>  <units.symbol>
%

>  <observed.value>
0

$$$$
>  <compound>
C/C=C/c1cc(OC)c2c(c1)[C@H](C)[C@@H](c1ccc(OC(C)C)c(OC)c1)O2

>  <units.symbol>
%

>  <observed.value>
57

$$$$
>  <compound>
C/C=C/c1cc(OC)c2c(c1)[C@H](C)[C@@H](c1ccc(OC(=O)OCC)c(OC)c1)O2 [Compound 47, licarin A ethyl carbonate]

>  <units.symbol>
%

>  <observed.value>
0

$$$$

# next compound below
# input Look at this compound and give its reported PPAR-γ % activation. C/C=C/c1cc(OC)c2c(c1)[C@H](C)[C@@H](c1ccc3c(c1)OCO3)O2
# output 45
